Test target: Full-length (FL)-PRMT5-MEP50 enzyme complex (Homo sapiens, UniProt O14744)
Construct: Full-length (FL)-PRMT5-MEP50 enzyme complex (recombinant proteins from baculovirus-transfected Sf21 cells: FL-PRMT5; MW=73837 kDa and FL-MEP50; MW=38614); made in house; host or cells: baculovirus-transfected Sf21 cells
Sequence (O14744 whole entry): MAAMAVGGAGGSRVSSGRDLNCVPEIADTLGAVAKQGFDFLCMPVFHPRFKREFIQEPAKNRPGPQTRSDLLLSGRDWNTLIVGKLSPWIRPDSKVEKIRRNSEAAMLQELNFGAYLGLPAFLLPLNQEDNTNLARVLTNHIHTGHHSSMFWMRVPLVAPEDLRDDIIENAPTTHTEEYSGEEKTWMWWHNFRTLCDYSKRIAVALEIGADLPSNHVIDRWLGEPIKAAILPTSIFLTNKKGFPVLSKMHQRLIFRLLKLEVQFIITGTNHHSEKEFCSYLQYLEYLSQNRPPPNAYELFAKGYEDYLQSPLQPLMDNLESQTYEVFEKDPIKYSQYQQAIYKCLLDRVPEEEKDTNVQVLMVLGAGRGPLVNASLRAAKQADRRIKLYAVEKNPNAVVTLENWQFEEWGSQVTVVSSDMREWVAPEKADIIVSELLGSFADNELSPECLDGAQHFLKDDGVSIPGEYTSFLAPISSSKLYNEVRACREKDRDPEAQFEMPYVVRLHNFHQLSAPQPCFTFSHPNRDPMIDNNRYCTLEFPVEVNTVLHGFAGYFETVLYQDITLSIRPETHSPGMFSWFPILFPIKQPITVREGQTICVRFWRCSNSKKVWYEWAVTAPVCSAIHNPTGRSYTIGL
Sequence (Q9BQA1 whole entry partner): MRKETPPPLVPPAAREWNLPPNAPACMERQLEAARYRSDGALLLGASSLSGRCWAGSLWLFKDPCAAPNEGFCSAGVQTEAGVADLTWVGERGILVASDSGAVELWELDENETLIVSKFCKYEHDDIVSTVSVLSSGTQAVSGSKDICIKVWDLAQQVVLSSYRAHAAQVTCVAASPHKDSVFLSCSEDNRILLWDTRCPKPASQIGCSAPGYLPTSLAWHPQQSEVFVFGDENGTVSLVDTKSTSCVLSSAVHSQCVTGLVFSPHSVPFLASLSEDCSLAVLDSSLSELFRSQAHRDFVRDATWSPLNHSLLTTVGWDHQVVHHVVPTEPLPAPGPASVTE
Test summary: PRMT5-MEP50 Enzyme Methylation Assay (Version A)
Format: biochemical
Reported conditions: second value of 7 parameter biphasic fit; read-out: Enzyme Methylation Assay Version A (EC50 2)
Reported endpoint: EC50 (µM)

Solved cases below.
Compound	Reported endpoint	Reported result
N#CCCc1cc(C(F)(F)F)cn2cc(C(=O)N3CC[C@]4(Cc5ccccc5CN4)[C@H](O)C3)nc12 [Example 34]	EC50	0.229
O=C(c1ccn2c(Br)cnc2n1)N1CC[C@]2(Cc3ccccc3CN2)[C@H](O)C1 [Example 57]	EC50	55
CN1CC(C2CC2)Cn2cc(C(=O)N3CC[C@]4(Cc5ccccc5CN4)[C@H](O)C3)nc21 (single isomer, unassigned) [Example 139]	EC50	0.767
COC(C)c1cc(C(C)C)cn2cc(C(=O)N3CC[C@]4(Cc5ccccc5CN4)[C@H](O)C3)nc12 (stereo partly drawn) [Example 84]	EC50	0.292
Cc1c(Br)cnc2ncc(C(=O)N3CC[C@]4(Cc5ccccc5CN4)[C@H](O)C3)n12 [Example 141]	EC50	3.72

(P) O=C(c1ccc2c(O)c(C3CC3)cnc2c1)N1CC[C@]2(Cc3ccccc3CN2)[C@H](O)C1 [Example 9]
(Q) O=C(c1cn2cc(C3CC3(F)F)cnc2n1)N1CC[C@]2(Cc3ccccc3CN2)[C@H](O)C1 (single isomer, unassigned) [Example 75]
(R) Cc1nn(C)c2ncc(C(=O)N3CC[C@]4(Cc5ccccc5CN4)[C@H](O)C3)c(Cl)c12 [Example 180]
Task: Arrange the 3 compounds by rising EC50, starting with the smallest. Response format: the labels, sorted as the prompt asks.
Result: Q, P, R
(Q: 0.112 µM, P: 4.68 µM, R: 52.5 µM)

====

Test target: Full-length (FL)-PRMT5-MEP50 enzyme complex (Homo sapiens)
Construct: Full-length (FL)-PRMT5-MEP50 enzyme complex (recombinant proteins from baculovirus-transfected Sf21 cells: FL-PRMT5; MW=73837 kDa and FL-MEP50; MW=38614); made in house; host or cells: baculovirus-transfected Sf21 cells
Test summary: PRMT5-MEP50 Enzyme Methylation Assay (Version A)
Assay type: biochemical
Reported conditions: second value of 7 parameter biphasic fit; read-out: Enzyme Methylation Assay Version A (EC50 2)
Reported endpoint: EC50 (µM)

Compound	EC50 / µM
Cc1cc2ncc(C(=O)N3CC[C@]4(Cc5ccccc5CN4)[C@H](O)C3)c(C)n2n1	3.98

(I) O=C(c1cn2cc(Br)ncc2n1)N1CC[C@]2(Cc3ccccc3CN2)[C@H](O)C1
(II) O=C(c1cn2ncc(Br)cc2n1)N1CC[C@]2(Cc3ccccc3CN2)[C@H](O)C1
(III) CC1CC(C(F)(F)F)Cn2cc(C(=O)N3CC[C@]4(Cc5ccccc5CN4)[C@H](O)C3)nc21 (single isomer, unassigned) [Example 166]
(IV) COCCN(C)c1cc([C@@H](C)OC)c2nc(C(=O)N3CC[C@]4(Cc5ccccc5CN4)[C@H](O)C3)cn2c1
Task: Arrange the 4 compounds by rising EC50, starting with the smallest. Response format: the labels, sorted as the prompt asks.
Result: IV, III, I, II
(IV: 0.234 µM, III: 1.64 µM, I: 3.24 µM, II: 8.32 µM)
